# Assay notes: MRP1 drug-resistance reversers in H69AR cells – cell-based, doxorubicin co-treatment, pilot screen (AID 601)
# Test conditions: H69AR cells + 2 uM doxorubicin, CellTiter-Glo, 72 h; measured here: viability with 2 uM doxorubicin; at 10 µM; stronger effect = lower value
Endpoint: viability (%)
A number alone suffices; assume %.

Solved entries (count: 4):
Molecule: CCN1CCN(C(=O)Cn2ncc3ccsc3c2=O)CC1
Result unit: %
viability: 93

Molecule: COc1ccc(-c2nn(-c3ccccc3)cc2/C=N/n2cnnc2)cc1OC
Result unit: %
viability: 91

Molecule: COc1cc2c(cc1OC)C(C)N(C(=O)Cn1ncc3c1-c1ccccc1OC3)CC2 (stereo not given)
Result unit: %
viability: 86.9

Molecule: COc1ccc(S(=O)(=O)Cc2ccc(C(=O)N3CCN(c4ccccc4)CC3)o2)cc1
Result unit: %
viability: 86.1

Just so you know, measured viability for CCc1ccc(N2CC34C=CC(O3)C(C(=O)OC)C4C2=O)cc1 (stereo not given) came out at 82.2

---

# Assay notes: S. cerevisiae growth inhibition in restrictive medium, OD615, pilot screen, restrictive growth control, yeast lifespan reduction project (AID 706);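 note: modified DeaD lifespan yeast strain shifted to restrictive glucose medium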
# Test conditions: OD615, 48 h, at 10 µM, stronger effect = higher value
Attribute: growth inhibition
A number alone suffices; assume %.

Just so you know, measured growth inhibition for COCCNC(=O)C(C)N(c1ccc(Oc2ccccc2)cc1)S(C)(=O)=O (centres undefined) came out at 4.17

Just so you know, measured growth inhibition for CCc1nnc(NC(=O)CSc2nnc(Cc3cccn3C)n2CCOC)s1 came out at 32.5

Just so you know, measured growth inhibition for CCCSC1=C(C#N)C(c2cc(OC)ccc2OC)CC(=O)N1 (centres undefined) came out at -3.12

Just so you know, measured growth inhibition for Cc1cc(NC(=O)CSc2nc3c(c(=O)n2CCc2ccccc2)SC(C)C3)no1 (centres undefined) came out at -12.3

---

Attribute: RAM network inhibition
# Assay notes: RAM signaling pathway blockade in yeast – S. cerevisiae, Pdr1DBD-CYC8 efflux-inhibited sensitized strain, primary screen (AID 1298);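 note: 0% = DMSO untreated cells without growth and 100% = 10 µM 1-NA-PP1 full growth; higher means more yeast growth rescued from 5-FOA killing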
# Test conditions: S. cerevisiae cbk1-as DSE1-URA3 strain, 5-FOA growth OD615, 2 d; at 50 µM; stronger effect = higher value
A number alone suffices; assume %.

Solved entries (count: 3):
Compound: COc1ccccc1N1C(=O)CCC1(C#N)c1ccccc1 (stereo not given)
RAM network inhibition [%]: 2.81
--
Compound: Cc1ccc(-c2nc(CS(=O)CC(=O)NCc3ccccn3)c(C)o2)cc1 (stereo not given)
RAM network inhibition [%]: 1.38
--
Compound: O=C(Cc1c(C(=O)O)[nH]c2ccccc12)NC1CCN(Cc2ccccc2)CC1
RAM network inhibition [%]: -1.14

Just so you know, measured RAM network inhibition for CN(C(=O)c1ccco1)c1nnc(C23CC4CC(CC(C4)C2)C3)s1 came out at 5.35

Just so you know, measured RAM network inhibition for Cc1ccc(Cn2c(=O)c3ccccc3n3c(CCC(=O)O)nnc23)cc1 came out at 6.3

Just so you know, measured RAM network inhibition for CC1CCN(C(=O)CSc2nnc(Cn3c(=O)sc4ccccc43)n2C)CC1 came out at 3.13

Just so you know, measured RAM network inhibition for Cc1ccc(C)c(N2CCN(CCCNC(=O)Cn3cc4c(n3)CCCCC4)CC2)c1 came out at 4.06

Just so you know, measured RAM network inhibition for CCC(C)(NC(=O)CNC(C)=O)C(=O)NC1CCCCC1 (stereo not given) came out at -0.83

Just so you know, measured RAM network inhibition for CCOC(=O)N1CCC(N2C(=O)c3ccccc3C2Nc2ccccc2C)CC1 (stereo not given) came out at 7.43

Just so you know, measured RAM network inhibition for N#CCCN1CCN(S(=O)(=O)c2ccc(S(=O)(=O)NC3CCCC3)cc2)CC1 came out at 3.21
